- Test system: HEK-293T
- assay explanation: Multiplex assay against HEK293T;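 further: share of the cells with healthy nuclei that show this phenotype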
- Format: toxicity, cell-based
- condition description: human, 48 h, 10 µM, compound concentration 10 uM, replicate 2
Could you mark each record Satisfied if its Population Tubulin-Different-Phenotype (%) falls strictly under 90%, and Not satisfied if it equals or exceeds it?

Is it true that Population Tubulin-Different-Phenotype (%) reported for CCc1cc2c(cc1CC)CC(NC[C@H](O)c1ccc(O)c3[nH]c(=O)ccc13)C2 [INDACATEROL] is less than 90%?
Not satisfied

Quick check: Population Tubulin-Different-Phenotype (%) of CCC(=O)O[C@]1(C(=O)SCF)[C@H](C)C[C@H]2[C@@H]3C[C@H](F)C4=CC(=O)C=C[C@]4(C)[C@@]3(F)[C@@H](O)C[C@@]21C [FLUTICASONE PROPIONATE] under 90%?
Satisfied

Decide: Population Tubulin-Different-Phenotype (%) of CC(C)Oc1ccc(C(=O)N[C@H](CNC(=O)CN(C)C)Cc2ccc(-c3cn4cccc([C@H](C)O)c4n3)cc2)cc1Cl [GSK-923295A] strictly below 90%?
Not satisfied

Does the reported Population Tubulin-Different-Phenotype (%) of COc1cc2c(NC3CCN(C(C)C)CC3)nc(N3CCC(F)(F)CC3)nc2cc1OCCCN1CCCC1 stay below 90%?
Satisfied

hey, is Population Tubulin-Different-Phenotype (%) for CCn1c(-c2nonc2N)nc2cnc(Oc3cccc(NC(=O)c4ccc(OCCN5CCOCC5)cc4)c3)cc21 [GSK-269962A] lower than 90% or not?
Not satisfied

Dear reviewer, please state whether CNc1oc(-c2cccc3ccccc23)nc1C#N has Population Tubulin-Different-Phenotype (%) strictly beneath 90%.
Satisfied

* * *

- Test system: U2OS
- assay explanation: Multiplex assay against U2OS
- Assay type: toxicity, cell-based
- condition description: human, 12 h, 1 µM, compound concentration 1 uM, replicate 2
Response field label: string, one of t (Population Apoptotic (%) strictly below 30%) or f.

Report whether reported Population Apoptotic (%) is lower than 30% (strictly) for Nc1ccc(C(=O)Nc2cccc(-c3nc(N4CCOCC4)c4oc5ncccc5c4n3)c2)cn1
t

In plain terms, does CNC(=O)c1cc(Oc2ccc(NC(=O)Nc3cc(C(C)(C)C)nn3-c3ccc4ncccc4c3)c(F)c2)ccn1 [REBASTINIB] come in under 30% for Population Apoptotic (%)?
t

Below 30% on Population Apoptotic (%)? Entry CNC(=O)c1nn(C)c2c1C(C)(C)Cc1cnc(Nc3ccc(N4CCN(C)CC4)cc3)nc1-2 [MILCICLIB]
f

Find out if reported Population Apoptotic (%) for Cl.Cl.Nc1ncnc2c1c(-c1cccc(OCc3ccccc3)c1)cn2[C@H]1C[C@@H](CN2CCC2)C1 is less than 30%
t

Regarding c1ccc2oc(-c3csc(C4CCN(Cc5nc6ncccc6[nH]5)CC4)n3)cc2c1 , kindly confirm whether its Population Apoptotic (%) is beneath 30%.
t

# strict comparison: is reported Population Apoptotic (%) < 30%? input = CC(C)N1CCC(C)(C)c2cc(C#Cc3ccc(C(=O)O)cc3)ccc21
t

Input CN(C)CCOc1ccc(-c2nc(-c3ccncc3)c(-c3ccc4c(c3)CC/C4=N\O)[nH]2)cc1 [SB590885] ; condition: Population Apoptotic (%) strictly below 30%. Does it hold?
f

Population Apoptotic (%) under 30%? Item: COc1ccc(NS(=O)(=O)c2sc3ccc(Cl)cc3c2C)cc1N1CCNCC1.Cl
t

Please let me know if O=C(O)c1ccc2cc(-c3ccc(O)c(C45CC6CC(CC(C6)C4)C5)c3)ccc2c1 [O-DEMETHYLATED ADAPALENE] shows Population Apoptotic (%) below 30%.
f
